# assay.name: Kinetic solubility study in aqueous buffers (HPLC of mother liquors)
# Format: physicochemical
# experimental.conditions: acetate buffer, aqueous buffer, thermodynamic from solid; pH 5.1, room temperature; maximum over 0.5-24 h (Form J and G after 1 h, Form III after 30 min); read-out: highest solubility
readout.type: solubility at 30 min (µg/mL)
Please reply with the bare figure in µg/mL and do not write the unit itself.

Given CCC(=O)O[C@]1(C(=O)CO)CC[C@H]2[C@@H]3CCC4=CC(=O)CC[C@]4(C)[C@H]3CC[C@@]21C [Form III, cortexolone 17α-propionate] , state its recorded solubility at 30 min.
18.1

###

# assay.name: Kinetic solubility study in aqueous buffers (HPLC of mother liquors)
# Assay type: physicochemical
# experimental.conditions: phosphate buffer, aqueous buffer, thermodynamic from solid; pH 6.0, room temperature; maximum over 0.5-24 h (Form J and Form III 30 min, Form G after 1 h); read-out: highest solubility
readout.type: solubility at 30 min (µg/mL)
Please reply with the bare figure in µg/mL and do not write the unit itself.

Given CCC(=O)O[C@]1(C(=O)CO)CC[C@H]2[C@@H]3CCC4=CC(=O)CC[C@]4(C)[C@H]3CC[C@@]21C [Form III, cortexolone 17α-propionate] , state its recorded solubility at 30 min.
16
